# Target Entity: DrOTOP1 I565W (Danio rerio, UniProt Q7ZWK8, I565W)
# Construct: A previously generated codon-optimized full-length DrOTOP1[8]; (UniProt: Q7ZWK8) construct; expressed in transfected cells; host or cells: HEK-293 (CRL-1573, ATCC)
# Sequence (Q7ZWK8 1-586 I565W): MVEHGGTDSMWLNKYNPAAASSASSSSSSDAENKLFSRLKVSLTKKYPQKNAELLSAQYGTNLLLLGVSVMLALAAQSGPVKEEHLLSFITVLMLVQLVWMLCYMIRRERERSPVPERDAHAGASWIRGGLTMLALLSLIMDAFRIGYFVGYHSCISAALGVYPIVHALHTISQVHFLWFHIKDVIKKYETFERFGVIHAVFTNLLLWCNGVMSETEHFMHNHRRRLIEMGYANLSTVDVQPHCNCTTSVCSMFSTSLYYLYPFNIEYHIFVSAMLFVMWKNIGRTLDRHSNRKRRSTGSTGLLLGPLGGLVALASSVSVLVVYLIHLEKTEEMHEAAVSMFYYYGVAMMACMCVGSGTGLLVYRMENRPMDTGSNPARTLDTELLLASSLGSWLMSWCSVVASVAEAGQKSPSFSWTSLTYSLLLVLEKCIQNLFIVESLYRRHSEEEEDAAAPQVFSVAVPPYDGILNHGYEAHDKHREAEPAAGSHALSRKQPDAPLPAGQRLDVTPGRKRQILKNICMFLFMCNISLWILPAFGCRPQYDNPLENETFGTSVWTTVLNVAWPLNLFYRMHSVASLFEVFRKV
# Test Method Notes: Whole-cell patch-clamp, inhibition of acid-evoked currents, DrOTOP1 I565W (C-domain pocket)
# Assay type: cell-based, zebrafish (Danio rerio)
# Condition Set: best-fit, Top 100, Bottom 0, Supp. Fig 5D, read-out: AbsoluteIC50
Measurement Type: IC50 (µM)

Mol Smiles	Measurement Type	Unit Abbrev	Recorded Value
O=C(/C(=N\O)c1ccccc1)c1ccccc1	IC50	µM	190
